molecular target: Gal(a1-3)Gal; assay: glycan array binding signal (z-score within array); higher = stronger binding; details: glycan notation: IUPAC condensed, linker removed
The entries come from a sample that favours the strongest signals as a whole.
# glycan array binding signal (z-score) values compiled below

[[record]]
binder = "Mg1lysM (Mycosphaerella graminicola) (protein) QRNPITITPQFDCGATNSQQYVARSGDTLTKIAQEIYHDVVGVCDIARANNLADPNRIDAGTPYTIPINCQTYDRNSCL"
endpoint_value = -0.086


Query binder follows.
Data request: Could you share which glycan array binding signal (z-score) value was measured for cupB6 (Pseudomonas aeruginosa), Q02SP7 (protein) MSMRLFPGRVSLRRRPGAQARQALVLGLCCLTGGQAWALNEVALNCSFGNGKGLPWRVVNELTSGTAKGTVLFARPVSLFLSYKPQASQEAHELVLGGNWSGVGYPGPYGTVASDVKGIGYRISVDAQDGVKRVIPVDNQPHALDKRVTSFSGSTTSDYLQELVLTVDPGELPAGDLKVTSVSGSATLNLWAVDRLKGEASIGSVLAVPADNYPTGVCRKPYSLIGPASIAIGGGPPPPPIPKKCKVEVGREINVKLGSVALKNFPRVNDTSTERSFDISLSECAALAKPEIAFRDKYVSAQQADPTILSLKSGGAAGFGIVVKNGLDQQRIRFDGTPYPMRRVGDSADLPLSAAYIRIGAEGELKAGVADGAAEFTFTFP ?
Data returned: -0.05

This collection of values is drawn from the supplement of paper PMC8728848.
